- System: CHO-MG* cells
- TEST_METHOD_NOTES: Cytotoxicity IC50 determination (MTS) in polyamine-transport-deficient CHO-MG* cells
- Format: cell-based, Chinese hamster
- SETUP_CONDITIONS: Cricetulus griseus, CHO-MG; 48 h at 37° C.; without AG; read-out: CHO-MG* IC50 (μM) w/o AG
ENDPOINT_NAME: IC50

Please review the entries below; each comes with its answer.
>  <SMILES_CODE>
CNCCCCNCCCCNCc1ccc(CNCCCCNCCCCNC)c2ccccc12

>  <IC50>
> 100 µM

$$$$
>  <SMILES_CODE>
CNCCCCNCCCCNCc1ccc(CNCCCCNCCCCNC)cc1

>  <IC50>
54 µM

$$$$

Next compound, please.
[in] Enter measured IC50, system CHO-MG* cells, for the compound shown: "CNCCCCNCCCCNCc1c2ccccc2c(CNCCCCNCCCCNC)c2ccccc12"
[out] > 100 µM

Data provenance: patent US9346741B2
